IC50 (PRNT50, live wt. virus) by entry:
system.name: T1, Spike (S) protein of live MERS-CoV EMC/2012 (wild type virus) (MERS-CoV, UniProt K9N5Q8 18-1353)
T1 sequence: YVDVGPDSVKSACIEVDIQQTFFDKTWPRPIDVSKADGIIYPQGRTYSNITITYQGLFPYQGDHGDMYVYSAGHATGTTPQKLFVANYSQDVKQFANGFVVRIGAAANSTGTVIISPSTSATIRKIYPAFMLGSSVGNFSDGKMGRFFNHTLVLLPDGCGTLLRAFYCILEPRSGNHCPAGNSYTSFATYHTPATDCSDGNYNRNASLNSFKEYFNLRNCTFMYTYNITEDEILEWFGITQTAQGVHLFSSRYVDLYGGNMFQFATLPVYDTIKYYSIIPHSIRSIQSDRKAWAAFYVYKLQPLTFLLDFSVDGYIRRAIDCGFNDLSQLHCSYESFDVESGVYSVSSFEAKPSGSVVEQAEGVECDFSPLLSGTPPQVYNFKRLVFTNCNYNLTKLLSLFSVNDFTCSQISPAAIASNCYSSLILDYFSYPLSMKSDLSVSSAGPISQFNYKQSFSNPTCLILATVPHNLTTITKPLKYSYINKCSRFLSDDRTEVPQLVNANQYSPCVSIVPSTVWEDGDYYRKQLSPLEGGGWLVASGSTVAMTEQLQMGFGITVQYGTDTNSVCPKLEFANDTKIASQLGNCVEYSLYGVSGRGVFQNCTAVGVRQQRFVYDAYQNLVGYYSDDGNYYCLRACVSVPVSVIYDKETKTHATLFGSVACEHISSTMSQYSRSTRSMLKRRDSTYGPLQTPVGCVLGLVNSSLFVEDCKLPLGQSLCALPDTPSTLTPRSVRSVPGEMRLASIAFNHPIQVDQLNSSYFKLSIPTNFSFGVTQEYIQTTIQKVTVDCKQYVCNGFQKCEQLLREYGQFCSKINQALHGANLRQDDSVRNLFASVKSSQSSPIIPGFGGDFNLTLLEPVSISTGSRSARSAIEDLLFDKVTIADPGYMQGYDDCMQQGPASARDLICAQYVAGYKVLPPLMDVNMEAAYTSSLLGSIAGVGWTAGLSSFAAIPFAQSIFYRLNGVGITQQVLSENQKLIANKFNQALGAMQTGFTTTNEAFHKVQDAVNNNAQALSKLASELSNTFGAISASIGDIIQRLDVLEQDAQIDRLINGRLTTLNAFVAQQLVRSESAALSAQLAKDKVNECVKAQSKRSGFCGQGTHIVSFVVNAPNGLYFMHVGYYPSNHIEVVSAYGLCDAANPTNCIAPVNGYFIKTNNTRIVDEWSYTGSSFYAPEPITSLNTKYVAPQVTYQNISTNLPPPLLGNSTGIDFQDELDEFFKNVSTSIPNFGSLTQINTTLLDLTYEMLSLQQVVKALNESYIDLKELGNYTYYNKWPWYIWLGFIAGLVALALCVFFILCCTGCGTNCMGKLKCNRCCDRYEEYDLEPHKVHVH
assay.overview: cell-based or functional assay
assay.metric: IC50 (PRNT50, live wt. virus) (µg/mL)

binder	value.units	endpoint.value
3A1 IgG1 (antibody, V domains shown) VH: QVQLVQSGAEVKKPGSSVKVSCKASGGTFSSYAVSWVRQAPGQGLEWVGRIIPIFGKANYAQKFQGRVTITADKSTSTAYMELSSLRPEDTAVYYCARDQGISANFKDAFDIWGQGTTVTVSS VL: ETTLTQSPATLSVSPGERATLSCRASESVGSNLAWYQQKPGQAPSLLIYGASTRATGIPDRFSGSGSGTDFTLTISSLQSEDFAAYYCQQYNNWPLTFGPGTKVEIK	µg/mL	4.5
1E9 scFvFc (scFv, V domains shown) VH: QVQLVQSGGGVVQPGRSLRLSCVASEFTFNTYGMHWVRQAPGKGLEWVAAISYDGTKKFYADSLKGRFTISRDNSKNTLYLQMNSLRSEDTAVYYCARSGDSDAFDIWGQGTMVTVSS VL: SYELTQPPSVSVSPGQTATITCSGDELGDKFAFWYQQKPGQSPVLVIYQDSKRPSGIPERFSGSNSGNTATLTISGTQALDEADYYCQAWDSNSYVFGTGTKVTVL	µg/mL	3.21
1F8 scFvFc (scFv, V domains shown) VH: EVQLVQSGAEVKEPGSSVKVSCKASGGTFGSYAINWVRQAPGQRLEWMGWIDAANGNTKYSQKFQGRVTITGDTSASTAYMELSSLRSEDTAVYYCARDRWMTTRAFDIWGQGTMVTVSS VL: QPVLTQPPSASGTPGQRVTISCSGSSSNIGSNYVFWYQQLPGMAPKLLISRNNQRPSGVPDRFSGSKSGTSASLAISGPQSEDEADYYCAAWDDSLRGPVFGGGTRVTVL	µg/mL	6.27

The reported measurements were obtained from patent US20190194299A1.
